B1: Homeobox protein cut-like 2, residues 895 to 963; numbered along this chain, O14529 (parent)
chain: EVDTLELTRQVKEKLAKNGICQRIFGEKVLGLSQGSVSDMLSRPKPWSKLTQKGREPFIRMQLWLSDQL

- Variants of: B1
- testMethodNotes: abundance fitness (aPCA) (normalised: wild type 0, dead -1); higher = more abundant; growth selection in yeast, the domain comes from the species named
- conditionDetails: Homo sapiens
Dear colleague, classification is by abundance fitness, with ranges listed here: class 1 = under -0.2, class 2 = from -0.2 up to -0.1, class 3 = -0.1 and over

# example entries with known answers
variantId: Q52P
labelClass: class 3
//
variantId: D39E
labelClass: class 3
//
variantId: S66Y
labelClass: class 3
//
variantId: P44H
labelClass: class 1
//
variantId: W47H
labelClass: class 1

Band assignment needed for E6V please.
class 2

Band assignment needed for L30T please.
class 1

Band assignment needed for Q10S please.
class 2

Band assignment needed for L32F please.
class 2

Band assignment needed for S38F please.
class 1

Band assignment needed for V29H please.
class 1
